Tested on: Quadruplex DNA
Assay: Stabilization of 5'-DABCYL/3'-FAM labeled BCL2 G-quadruplex oligonucleotide (unknown origin) assessed as change in melting temperature at 5 uM preincubated for 5 mins and measured after 5 mins by FRET assay
Format: nucleic-acid assay
Measured quantity: ΔTm (°C)

>>> df
                                   compound  meas_value
0  CCN1CCN(C(=O)c2cc3c4ccccc4n4c(=O)c5ccccc5c(n2)c34)CC1         2.3

1. COc1ccc2c(c1OC)c(=O)n1c3ccc(OCC(=O)NCCCN4CCOCC4)cc3c3ccnc2c31
2. COc1ccc2c(c1OC)c(=O)n1c3ccccc3c3cc(C(=O)N4CCN(CCO)CC4)nc2c31
Task: Which has the higher ΔTm, 1 or 2 ? Reply briefly: the label of your chosen item.
Output: 1

A. CN(C)Cc1c(O)ccc2c1c1ccnc3c4ccccc4c(=O)n2c13
B. C=C(C)Cc1c(OCC(=O)NCC2CCCN2CC)ccc2c1c1ccnc3c4ccccc4c(=O)n2c13 (stereo not given)
Task: Between item A and item B , which reported ΔTm is smaller? Reply briefly: the label of your chosen item.
Output: B
